# maps each entry to its koff
Target: T1, cynomolgus CD8 (captured on the Octet biosensor) (cynomolgus)
T1 construct: Construct not described; also called cyno CD8; cyno CD8a
T1 sequence (P30433 other isoform, or with tags, fused parts or gaps): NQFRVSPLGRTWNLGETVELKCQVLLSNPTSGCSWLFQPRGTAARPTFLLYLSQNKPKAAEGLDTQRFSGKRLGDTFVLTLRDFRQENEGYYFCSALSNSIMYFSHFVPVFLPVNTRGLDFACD
Assay: Octet (BLI); cynomolgus CD8 captured, dipped into multiple concentrations of the one-arm mAb

[
  {
    "binder": "XENP26009 (antibody, V domains shown, also called OKT8_H2.152_L1.103 one-arm mAb) VH: QVQLVQSGAEVKKPGASVKVSCKASGFNIKDTYIHWVRQAPGKGLEWMGRIDPDNGETLYASKFQGRVTITADTSINTAYMELSRLRSDDTAVYYCGRGYGYYVFDHWGQGTTVTVSS VL: AIKMTQSPSSLSASVGDRVTITCRTSRSISKYLAWYQEKPGKTNKLLIYSGSTLQSGIPSRFSGSGSGTDFTLTISSLQPEDFATYYCQQHNENPLTFGAGTKLEIK",
    "koff / s⁻¹": 0.00909
  },
  {
    "binder": "XENP26239 (antibody, V domains shown, also called OKT8_H2.162_L1.103 one-arm mAb) VH: QVQLVQSGAEVKKPGASVKVSCKASGFNIKDTYIHWVRQAPGKGLEWMGRIDPDNDETLYASKFQGRVTITADTSINTAYMELSRLRSDDTAVYYCGRGYGYYYFDHWGQGTTVTVSS VL: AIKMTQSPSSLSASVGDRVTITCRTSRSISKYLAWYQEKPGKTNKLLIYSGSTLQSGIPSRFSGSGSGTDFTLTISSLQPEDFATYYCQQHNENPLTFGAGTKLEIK",
    "koff / s⁻¹": 0.00882
  },
  {
    "binder": "XENP26240 (antibody, V domains shown, also called OKT8_H2.163_L1.103 one-arm mAb) VH: QVQLVQSGAEVKKPGASVKVSCKASGFNIKDTYIHWVRQAPGKGLEWMGRIDPDNDETLYASKFQGRVTITADTSINTAYMELSRLRSDDTAVYYCGRGWGYYVFDHWGQGTTVTVSS VL: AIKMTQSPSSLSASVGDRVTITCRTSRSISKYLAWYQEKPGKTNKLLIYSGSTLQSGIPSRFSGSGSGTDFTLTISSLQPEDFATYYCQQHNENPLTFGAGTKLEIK",
    "koff / s⁻¹": 0.0225
  }
]
